- subjectOfTest: human CCR6 (Homo sapiens)
- Construct: expressed in transfected cells; host or cells: Ba/F3 cells (mouse pro-B line)
- Sequence (P51684 1-374): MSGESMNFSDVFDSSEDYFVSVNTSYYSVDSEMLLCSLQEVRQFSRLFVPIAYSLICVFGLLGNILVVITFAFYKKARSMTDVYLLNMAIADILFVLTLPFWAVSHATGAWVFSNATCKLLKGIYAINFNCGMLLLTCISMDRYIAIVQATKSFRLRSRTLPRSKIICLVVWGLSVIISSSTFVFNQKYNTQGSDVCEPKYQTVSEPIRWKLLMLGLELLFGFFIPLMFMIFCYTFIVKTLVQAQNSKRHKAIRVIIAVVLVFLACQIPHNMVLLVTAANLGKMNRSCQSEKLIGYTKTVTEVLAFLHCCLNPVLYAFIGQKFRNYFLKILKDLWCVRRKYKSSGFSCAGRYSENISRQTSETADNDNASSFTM
- methodNotes: Migration assay (chemotaxis, ChemoTX)
- Format: cell-based
- reportedConditions: hCCR6-transfected Ba/F3 cells in human serum, migration to recombinant human CCL20 10 nM, 37° C. 45 minutes; read-out: Potency (IC50 value in the migration assay)
measuredQuantity: IC50

| mol | measuredQuantity | result |
| --- | --- | --- |
| O=S(=O)(c1ccc(-c2ccc(N3CC4(COC4)C3)nc2)cc1)N1CC[C@@H](Nc2ccc(C(F)(F)F)cn2)[C@@H](O)C1 | IC50 | < 1 nM |
| Cc1c(-c2ccc(S(=O)(=O)N3CC[C@@H](Nc4ccc(C(F)(F)F)cn4)[C@@H](O)C3)cc2)ccnc1C(N)=O | IC50 | < 1 nM |
| O=S(=O)(c1ccc(-c2ccnc(N3CCC(O)CC3)c2)cc1)N1CC[C@@H](Nc2ccc(C(F)(F)F)cn2)[C@@H](O)C1 | IC50 | < 1 nM |
| NC(=O)c1ccnc(-c2ccc(S(=O)(=O)N3CC[C@@H](Nc4ccc(C(F)(F)F)cn4)[C@@H](O)C3)cc2)c1 | IC50 | 1 to 10 nM |
| O=S(=O)(c1ccc(-c2ccnc(N3CCC3)c2)cc1)N1CC[C@@H](Nc2ccc(C(F)(F)F)cn2)[C@@H](O)C1 | IC50 | < 1 nM |

I'd like to know its IC50. The compound in question is N#Cc1ccc(N[C@@H]2CCN(S(=O)(=O)c3ccc(-c4cnc5[nH]cc(C#N)c5c4)cc3)C[C@@H]2O)nc1
< 1 nM

The origin of these recorded values is patent US12018016B2.
